Recorded values, source paper PMC10397247.

# key: entry, value: interaction score
Biological target: T1, 4H619-bH
T1 chain: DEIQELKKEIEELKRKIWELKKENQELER
Experiment: two-hybrid library CCNG1;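 also: natural log of median RNA to DNA barcode read ratio; higher means stronger binding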
Write the value as a bare number.

Some binders with known interaction score results, for comparison:
DKNQELKKKNEELEREIWELEKKIQELKR [4H3974-bH]	-0.167
DKNQELKKEIEELERKNWELEKKIQELKR [4H3638-bH]	-1.47
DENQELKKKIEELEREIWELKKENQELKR [4H1804-bH]	-0.693

Please look up its interaction score: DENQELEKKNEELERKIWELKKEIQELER [4H1449-bH] -2.2

Please look up its interaction score: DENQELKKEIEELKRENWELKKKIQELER [4H1629-bH] 0.577

Please look up its interaction score: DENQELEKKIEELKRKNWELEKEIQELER [4H1393-bH] -1.79

Please look up its interaction score: DKNQELEKEIEELERKNWELKKEIQELER [4H3129-bH] -0.44
